Data credit: patent US9090632B2

Molecular target: human mGluR5 (Homo sapiens, UniProt P41594)
Sequence (P41594 21-1180 isoform P41594-2 limits assumed): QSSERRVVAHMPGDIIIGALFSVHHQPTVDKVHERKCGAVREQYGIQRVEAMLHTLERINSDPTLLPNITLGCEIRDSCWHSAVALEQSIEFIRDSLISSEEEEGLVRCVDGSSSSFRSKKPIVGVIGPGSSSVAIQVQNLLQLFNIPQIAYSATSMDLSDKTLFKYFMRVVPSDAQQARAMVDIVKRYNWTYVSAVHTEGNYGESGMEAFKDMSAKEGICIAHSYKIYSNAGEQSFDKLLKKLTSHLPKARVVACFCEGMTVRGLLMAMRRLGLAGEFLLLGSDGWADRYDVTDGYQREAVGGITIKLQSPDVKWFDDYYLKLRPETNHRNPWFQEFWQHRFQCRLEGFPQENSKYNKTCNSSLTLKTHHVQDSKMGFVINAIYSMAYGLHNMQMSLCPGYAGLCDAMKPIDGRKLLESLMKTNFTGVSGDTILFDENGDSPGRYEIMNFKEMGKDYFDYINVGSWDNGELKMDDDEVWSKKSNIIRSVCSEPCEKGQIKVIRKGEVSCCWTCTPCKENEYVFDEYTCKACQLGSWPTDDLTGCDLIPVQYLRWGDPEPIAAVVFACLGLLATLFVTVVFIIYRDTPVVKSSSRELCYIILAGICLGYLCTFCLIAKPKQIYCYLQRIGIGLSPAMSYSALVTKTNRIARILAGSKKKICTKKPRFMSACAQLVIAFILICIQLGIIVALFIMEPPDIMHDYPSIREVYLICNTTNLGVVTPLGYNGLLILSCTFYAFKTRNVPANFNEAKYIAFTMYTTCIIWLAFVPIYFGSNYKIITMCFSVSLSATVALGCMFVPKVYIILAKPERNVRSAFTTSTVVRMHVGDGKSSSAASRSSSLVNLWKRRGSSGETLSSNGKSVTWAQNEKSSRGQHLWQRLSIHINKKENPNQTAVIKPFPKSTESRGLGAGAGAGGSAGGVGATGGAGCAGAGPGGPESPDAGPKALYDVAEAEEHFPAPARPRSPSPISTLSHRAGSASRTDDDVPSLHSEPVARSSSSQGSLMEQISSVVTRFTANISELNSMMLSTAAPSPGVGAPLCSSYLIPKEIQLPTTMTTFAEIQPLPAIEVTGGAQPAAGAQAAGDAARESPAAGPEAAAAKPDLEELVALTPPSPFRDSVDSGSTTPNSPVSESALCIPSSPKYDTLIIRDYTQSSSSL
Assay: Cell-based functional Ca2+ mobilization assay, potentiation of glutamate EC20 response (H10H cell-line)
Details: H10H cell-line expressing recombinant human mGluR5; in presence of glutamate EC20; normalized to maximal glutamate response
MEASURE_NAME: Emax (%)

INSERT INTO results (compound, measure_name, result_units, data_value) VALUES
  ('O=C(N1CCc2nc(COc3ccccc3)oc2C1)C(F)(F)F [Example B34]', 'Emax', '%', 10),
  ('O=C(c1ccc(=O)[nH]c1)N1CCc2nc(COc3ccccc3)oc2C1 [Example B139]', 'Emax', '%', 10),
  ('O=C(c1cncc(F)c1)N1CCc2nc(COc3ccccc3)oc2C1 [Example B65]', 'Emax', '%', 49),
  ('O=C(c1ncc(F)cc1F)N1CCc2nc(COc3cccc(F)c3)oc2C1 [Example B101]', 'Emax', '%', 67),
  ('O=C(c1ccc(F)cc1)N1CCc2nc(COc3ccccc3C(F)(F)F)oc2C1 [Example B130]', 'Emax', '%', 22),
  ('O=C(c1cccnn1)N1CCc2nc(COc3ccccc3)oc2C1 [Example B162]', 'Emax', '%', 17),
  ('O=C(c1ccccc1F)N1CCc2nc(COc3ccccc3)sc2C1 [Example B5]', 'Emax', '%', 64),
  ('O=C(c1c(F)cccc1F)N1CCc2nc(COc3ccccc3)oc2C1 [Example B16]', 'Emax', '%', 82),
  ('O=C(c1ccc(F)cc1)N1CCc2nc(COc3ccccc3F)oc2C1 [Example B13]', 'Emax', '%', 68);

----------
Biological target: human mGluR5 (Homo sapiens, UniProt P41594)
Assay: Cell-based functional Ca2+ mobilization assay, potentiation of glutamate EC20 response (H10H cell-line)
Settings: H10H cell-line expressing recombinant human mGluR5; in presence of glutamate EC20; normalized to maximal glutamate response
Label criterion not met if Emax falls below 50%; label criterion met in every other case.

INSERT INTO measurements (chem_smiles, measured_target, group_label) VALUES
  ('N#Cc1ccc(C(=O)N2CCc3nc(COc4cccc(F)c4)oc3C2)cc1F', 'human mGluR5 (Homo sapiens, UniProt P41594)', 'criterion met'),
  ('CN(C)c1cccc(C(=O)N2CCc3nc(COc4ccccc4)oc3C2)c1', 'human mGluR5 (Homo sapiens, UniProt P41594)', 'criterion met'),
  ('CC(C)(C)OCC(=O)N1CCc2nc(COc3ccccc3)oc2C1', 'human mGluR5 (Homo sapiens, UniProt P41594)', 'criterion not met'),
  ('O=C(c1ccc(F)cc1)N1CCc2nc(/C=C/c3ccccc3)oc2CC1', 'human mGluR5 (Homo sapiens, UniProt P41594)', 'criterion not met'),
  ('Cn1cccc1C(=O)N1CCc2nc(COc3ccccc3)oc2C1', 'human mGluR5 (Homo sapiens, UniProt P41594)', 'criterion met'),
  ('O=C(c1ccc(F)cc1)N1CCc2oc(COc3ccccc3)nc2C1', 'human mGluR5 (Homo sapiens, UniProt P41594)', 'criterion met'),
  ('O=C(CCc1ccccc1)N1CCc2nc(COc3ccccc3)oc2C1', 'human mGluR5 (Homo sapiens, UniProt P41594)', 'criterion met'),
  ('O=C(c1cc(F)cc(F)c1)N1CCc2nc(COc3ccccc3)oc2C1', 'human mGluR5 (Homo sapiens, UniProt P41594)', 'criterion not met'),
  ('Cc1oncc1C(=O)N1CCc2nc(COc3ccccc3)oc2C1', 'human mGluR5 (Homo sapiens, UniProt P41594)', 'criterion not met'),
  ('O=C(c1ccc(F)cc1F)N1CCc2nc(COc3cccc(F)c3)oc2C1', 'human mGluR5 (Homo sapiens, UniProt P41594)', 'criterion met'),
  ('O=C(c1ncco1)N1CCc2nc(COc3ccccc3)oc2C1', 'human mGluR5 (Homo sapiens, UniProt P41594)', 'criterion not met'),
  ('O=C(c1ccc[nH]1)N1CCc2nc(COc3ccccc3)oc2C1', 'human mGluR5 (Homo sapiens, UniProt P41594)', 'criterion not met'),
  ('Cc1noc(C(=O)N2CCc3nc(COc4ccccc4)oc3C2)n1', 'human mGluR5 (Homo sapiens, UniProt P41594)', 'criterion not met'),
  ('O=C(c1n[nH]c2ncccc12)N1CCc2nc(COc3ccccc3)oc2C1', 'human mGluR5 (Homo sapiens, UniProt P41594)', 'criterion met'),
  ('O=C(c1ccno1)N1CCc2nc(COc3ccccc3)oc2C1', 'human mGluR5 (Homo sapiens, UniProt P41594)', 'criterion met'),
  ('Cc1nc(C(=O)N2CCc3nc(COc4ccccc4)oc3C2)c(C)o1', 'human mGluR5 (Homo sapiens, UniProt P41594)', 'criterion met'),
  ('O=C(c1ccc(F)cc1)N1CCc2nc(CCc3ccccc3)oc2C1', 'human mGluR5 (Homo sapiens, UniProt P41594)', 'criterion not met'),
  ('O=C(c1ccc(F)cc1)N1CCc2nc(COc3ccccn3)oc2C1', 'human mGluR5 (Homo sapiens, UniProt P41594)', 'criterion met');
